The values you see were collected from ChEMBL document CHEMBL1122545.

Experiment: Diuretic activity was determined expressed as volume of urine excreted in mL was reported at a dose of 100 mg/Kg
Type: ADME
Conditions: in vivo
Give measured Diuretic activity for each item. Keep answers brief.
All answers are understood in mL, so give the number only.

Which Diuretic activity value is on record for COc1ccc(CNc2cc(Cl)c(/N=C/N(C)C)c(Cl)c2)cc1OC ?
8.3

Which Diuretic activity value is on record for Clc1cccc(Cl)c1NC1=NCCN1 [CLONIDINE] ?
16.4

Which Diuretic activity value is on record for CN(C)/C=N/c1c(Cl)cc(NCc2ccc(-c3ccccc3)cc2)cc1Cl ?
7.3

Which Diuretic activity value is on record for NS(=O)(=O)c1cc2c(cc1Cl)NCNS2(=O)=O [HYDROCHLOROTHIAZIDE] ?
13.2

Which Diuretic activity value is on record for CN(C)/C=N/c1c(Cl)cc(NCc2cccc(F)c2)cc1Cl ?
25

Which Diuretic activity value is on record for CN(C)/C=N/c1c(Cl)cc(NCc2cccc(C(F)(F)F)c2)cc1Cl ?
21.3

Which Diuretic activity value is on record for COc1ccc(CNc2cc(Cl)c(/N=C/N(C)C)c(Cl)c2)cc1F ?
16.8

Which Diuretic activity value is on record for CN(C)/C=N/c1c(Cl)cc(NCc2ccccc2O)cc1Cl ?
12.3

Which Diuretic activity value is on record for COc1cc(CNc2cc(Cl)c(/N=C/N(C)C)c(Cl)c2)cc(OC)c1OC ?
17.5

Which Diuretic activity value is on record for CN(C)/C=N/c1c(Cl)cc(NCc2cccc(Br)c2)cc1Cl ?
19.3
